- experimental system: A2a receptors (Rattus norvegicus, UniProt P30543)
- Construct: Displacement of specific [^3 H]; from tissue; host or cells: rat striatal membranes
- Sequence (P30543 whole entry): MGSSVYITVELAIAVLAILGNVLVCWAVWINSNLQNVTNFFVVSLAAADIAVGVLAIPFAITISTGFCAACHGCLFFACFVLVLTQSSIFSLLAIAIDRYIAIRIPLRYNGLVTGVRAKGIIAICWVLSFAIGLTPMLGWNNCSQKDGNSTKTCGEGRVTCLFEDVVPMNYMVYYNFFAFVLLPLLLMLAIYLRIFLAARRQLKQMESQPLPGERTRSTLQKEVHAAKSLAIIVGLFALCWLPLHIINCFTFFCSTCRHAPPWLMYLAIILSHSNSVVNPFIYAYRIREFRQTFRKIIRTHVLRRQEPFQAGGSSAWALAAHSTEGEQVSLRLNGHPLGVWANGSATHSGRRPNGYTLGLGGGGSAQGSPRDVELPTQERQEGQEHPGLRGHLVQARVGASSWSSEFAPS
- test description: radioligand binding, displacement of specific [3H]CGS 21680 binding in rat striatal membranes
- experimental parameters: Table 9; [3H]CGS 21680, rat striatal membranes; read-out: Ki rA2A
property label: Ki (µM)

The cases that follow already have their Ki on record.
Ki reported for this molecule CCOC(=O)C1=C(C)NC(C)=C(C(=O)OC)C1c1ccc(O)c(OC)c1 (racemic) : 56.8

Ki reported for this molecule COC(=O)C1=C(C)NC(C)=C(C(=O)OCc2ccccc2)C1C (racemic) : 9.72

Ki reported for this molecule CCOC(=O)C1=C(C)NC(C)=C(C(=O)OC)C1CC (racemic) : 9.56

[P] CCOC(=O)C1=C(C)NC(C)=C(C(=O)OC)C1C#Cc1ccccc1 (stereo not drawn)
[Q] CCOC(=O)C1=C(C)NC(C)=C(C(=O)OC)C1CC(C)CCC=C(C)C (racemic)
[R] COC(=O)C1=C(C)NC(C)=C(C(=O)OCCN(C)Cc2ccccc2)C1c1cccc([N+](=O)[O-])c1 (stereo not drawn) [Compound 63, reference compound]
[S] CCOC(=O)C1=C(C)NC(C)=C(C(=O)OC)C1CCc1ccccc1 (stereo not drawn)
Please list the entries, largest Ki first. Write the labels in rank order as requested.
R, P, Q, S

* * *

- experimental system: A1 receptors (Rattus norvegicus, UniProt P25099)
- Sequence (P25099 1-326): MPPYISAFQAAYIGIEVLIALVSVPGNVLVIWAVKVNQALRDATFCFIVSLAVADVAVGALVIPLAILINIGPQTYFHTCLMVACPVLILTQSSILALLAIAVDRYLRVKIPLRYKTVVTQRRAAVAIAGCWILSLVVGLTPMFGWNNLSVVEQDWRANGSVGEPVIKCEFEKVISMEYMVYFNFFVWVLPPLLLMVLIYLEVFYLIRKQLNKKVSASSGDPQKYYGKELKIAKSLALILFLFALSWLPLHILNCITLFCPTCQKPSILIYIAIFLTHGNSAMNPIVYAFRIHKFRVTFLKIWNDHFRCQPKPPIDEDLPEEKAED
- test description: biochemical
- Assay type: binding
- experimental parameters: Table 6; [3H]PIA, rat brain membranes; read-out: K2 (rA1)
property label: Ki (µM)

The cases that follow already have their Ki on record.
Ki reported for this compound COc1ccc(-c2oc3cc(OC)cc(OC)c3c(=O)c2OC)cc1 : 1.07

Ki reported for this compound O=c1cc(-c2ccccc2)oc2cc(O)ccc12 [Compound 26, reference compound] : 3.03

Ki reported for this compound COc1c(O)cc2oc(-c3ccc(O)cc3)cc(=O)c2c1O [Compound 32, hispidulin, reference compound] : 1.61

[a] COc1ccc(-c2oc3cc(OC)cc(OC)c3c(=O)c2OC)c(OC)c1
[b] COc1cc2oc(-c3ccc(O)cc3)cc(=O)c2c(O)c1OC [Compound 33, cirsimaritin, reference compound]
Of the two listed items, a and b , which carries the larger Ki figure? Respond using the label that marks the chosen record.
a

* * *

- experimental system: human A3 receptors (Homo sapiens, UniProt P0DMS8)
- Construct: expressed in transfected cells; host or cells: HEK-293 cells (membranes)
- Sequence (P0DMS8 whole entry): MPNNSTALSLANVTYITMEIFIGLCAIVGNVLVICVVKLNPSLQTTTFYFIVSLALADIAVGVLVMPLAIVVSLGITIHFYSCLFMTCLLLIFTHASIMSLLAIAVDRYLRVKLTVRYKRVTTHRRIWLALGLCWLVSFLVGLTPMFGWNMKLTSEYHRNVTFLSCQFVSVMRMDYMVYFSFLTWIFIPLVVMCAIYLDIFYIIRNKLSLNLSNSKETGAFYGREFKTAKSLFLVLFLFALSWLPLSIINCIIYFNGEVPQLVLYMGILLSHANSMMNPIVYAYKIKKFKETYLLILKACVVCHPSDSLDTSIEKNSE
- test description: radioligand binding, displacement of specific [125I]AB-MECA binding at human A3 receptors expressed in HEK-293 cells
- experimental parameters: Table 16; [125I]AB-MECA, HEK membranes; read-out: Ki hA3
pKi: −log10 of the molar value.
property label: pKi

[P] Nc1ccc(CC(=O)Nc2nc3ccc(Cl)cc3c3nc(-c4ccco4)nn23)cc1I [Compound 164]
[Q] O=C(CCc1ccccc1)Nc1nc2ccc(Cl)cc2c2nc(-c3ccco3)nn12 [Compound 160]
[R] O=C(Cc1ccc([N+](=O)[O-])cc1)Nc1nc2ccc(Cl)cc2c2nc(-c3ccco3)nn12 [Compound 162]
[S] Nc1ccc(CC(=O)Nc2nc3ccc(Cl)cc3c3nc(-c4ccco4)nn23)cc1 [Compound 163]
Order the entries by their reported pKi, beginning at the minimum. Write the labels in rank order as requested.
Q, R, S, P
